Form field: MIC (one value per entry).
tested on: Acinetobacter baumannii; test: Antibacterial activity against Acinetobacter baumannii ATCC BAA 1797 clinical isolate after 18 hrs by broth microdilution method; assay type: functional; details: ATCC BAA 1797, 18 h

>  <compound>
CC(=O)NC[C@H]1CN(c2ccc(N3CCN(C(=O)CN)CC3)c(F)c2)C(=O)O1

>  <assay_result>
> 50 µM

$$$$
>  <compound>
CC(=O)NC[C@H]1CN(c2ccc(N3CCN(C(=O)CNC(=O)CN(CCCCNC(=O)c4cccc(O)c4O)C(=O)c4cccc(O)c4O)CC3)c(F)c2)C(=O)O1

>  <assay_result>
> 50 µM

$$$$

Would you mind telling me what MIC value was observed for CC(=O)NC[C@H]1CN(c2ccc(N3CCN(C(=O)CNC(=O)OCC4=C(C(=O)O)N5C(=O)[C@@H](NC(=O)C(N)c6ccccc6)[C@H]5SC4)CC3)c(F)c2)C(=O)O1 (stereo partly specified) ? > 50 µM

Would you mind telling me what MIC value was observed for CC(=O)OCC1=C(C(=O)O)N2C(=O)[C@@H](NC(=O)C(N)c3ccccc3)[C@H]2SC1 (stereo partly specified) ? > 50 µM

Would you mind telling me what MIC value was observed for CC(=O)OCC1=C(C(=O)O)N2C(=O)[C@@H](NC(=O)C(NC(=O)CN(CCCCNC(=O)c3cccc(O)c3O)C(=O)c3cccc(O)c3O)c3ccccc3)[C@H]2SC1 (stereo partly specified) ? > 50 µM

Would you mind telling me what MIC value was observed for CC(=O)NC[C@H]1CN(c2ccc(N3CCN(C(=O)CNC(=O)OCC4=C(C(=O)O)N5C(=O)[C@@H](NC(=O)C(NC(=O)CN(CCCCNC(=O)c6cccc(O)c6O)C(=O)c6cccc(O)c6O)c6ccccc6)[C@H]5SC4)CC3)c(F)c2)C(=O)O1 (stereo partly specified) ? 6.25 µM

---

Form field: MIC (one value per entry).
system: Acinetobacter baumannii; assay: Antibacterial activity against Acinetobacter baumannii ATCC BAA 1800 clinical isolate after 18 hrs by broth microdilution method; assay type: functional; details: ATCC BAA 1800, 18 h

>  <molecule>
CC(=O)NC[C@H]1CN(c2ccc(N3CCN(C(=O)CNC(=O)CN(CCCCNC(=O)c4cccc(O)c4O)C(=O)c4cccc(O)c4O)CC3)c(F)c2)C(=O)O1

>  <MIC>
> 50 µM

$$$$
>  <molecule>
CC(=O)NC[C@H]1CN(c2ccc(N3CCN(C(=O)CNC(=O)OCC4=C(C(=O)O)N5C(=O)[C@@H](NC(=O)C(NC(=O)CN(CCCCNC(=O)c6cccc(O)c6O)C(=O)c6cccc(O)c6O)c6ccccc6)[C@H]5SC4)CC3)c(F)c2)C(=O)O1 (stereo partly specified)

>  <MIC>
0.8 µM

$$$$
>  <molecule>
CC(=O)OCC1=C(C(=O)O)N2C(=O)[C@@H](NC(=O)C(N)c3ccccc3)[C@H]2SC1 (stereo partly specified)

>  <MIC>
> 50 µM

$$$$
>  <molecule>
CC(=O)OCC1=C(C(=O)O)N2C(=O)[C@@H](NC(=O)C(NC(=O)CN(CCCCNC(=O)c3cccc(O)c3O)C(=O)c3cccc(O)c3O)c3ccccc3)[C@H]2SC1 (stereo partly specified)

>  <MIC>
25 µM

$$$$
>  <molecule>
CC(=O)NC[C@H]1CN(c2ccc(N3CCN(C(=O)CNC(=O)OCC4=C(C(=O)O)N5C(=O)[C@@H](NC(=O)C(N)c6ccccc6)[C@H]5SC4)CC3)c(F)c2)C(=O)O1 (stereo partly specified)

>  <MIC>
> 50 µM

$$$$

Let us examine a further case.
Give recorded MIC with Acinetobacter baumannii for the following molecule: CC(=O)NC[C@H]1CN(c2ccc(N3CCN(C(=O)CN)CC3)c(F)c2)C(=O)O1 > 50 µM
